Assay: Pharmacokinetics in mice IV 3 and PO 10 mg/kg; plasma, lung and liver
Conditions: mouse, in vivo, iv, 3 mg/kg, AUClast, mouse Plasma; Compound P3 dosed IV 3 mg/kg
measured-metric: AUC(0-t) (ng·h/mL)
The reply should be a number in ng·h/mL, with the unit left off.

Give the measured AUC(0-t) of O=C(Nc1ccc([N+](=O)[O-])cc1Cl)c1cc(Cl)ccc1OC(=O)N1CCNCC1 .
1280

====

Test: Pharmacokinetics in male hamsters, plasma and lung, IV 3 mg/kg or PO 30 mg/kg
Conditions: male, hamster, in vivo, iv, 3 mg/kg, Ratio (Lung/Plasma), Mean, Compound P3 IV 3 mg/kg, 2 h
Method: Compound P3 was administered intravenously (3 mg/kg dosing in 20% HP-β-CD in water) or orally (30 mg/kg dosing in 20% HP-β-CD in water).
measured-metric: Kp at 2 h
Keep the answer to the number alone.

Give the measured Kp at 2 h of O=C(Nc1ccc([N+](=O)[O-])cc1Cl)c1cc(Cl)ccc1OC(=O)N1CCNCC1 .
81
